Data origin, for the record: the supplement of paper PMC10646978

Record form. Attribute: NF-kB reporter. Fill in for each entry.
System: RAW-Dual (murine macrophage reporter line)
MEASUREMENT_NOTES: NF-kB reporter (SEAP) activity fold change vs agonist alone; higher = enhanced NF-kB activity
CONDITION_DETAILS: modulator concentration 10 µM; agonist: LPS 0.1 ug/mL
Numbers only.

COMPOUND	NF-kB reporter
Cc1cccc(NC(=O)CSc2nc(N3CCCCC3)nc3ccccc23)c1	1.11
CCOc1ccc(CN2CCN(c3cc(C)nc4c5c(C)cc(C)nc5nn34)CC2)cc1	1.04
Cc1ccsc1C(=CCCN1CCC[C@@H](C(=O)O)C1)c1sccc1C	1.06

Dear colleague, could you send me NF-kB reporter for each of the items below? Thanks.
1. COc1ccc(S(=O)(=O)NCc2cccnc2-c2cnn(C)c2)cc1Cl
2. COc1ccc(C2=CC(=Cc3cccc(OC)c3OC)C(=O)O2)c(OC)c1
3. CCNC1(C(N)=O)CCN(c2ncnc3c2nc(-c2ccccc2Cl)n3-c2ccc(Cl)cc2)CC1.Cl
4. COc1ccc(CC(=O)N2CCCc3ccccc32)cc1OC
5. CCOc1cccc2sc(=NC(=O)c3ccc(S(=O)(=O)N4CCOCC4)cc3)n(C)c12

**Result**
[1.15, 1.06, 0.479, 0.778, 1.14]

Dear colleague, could you send me NF-kB reporter for each of the items below? Thanks.
1. Cc1cccc(C(=O)Nc2cccc([N+](=O)[O-])c2C)c1
2. O=C(NCCC(CCO)c1ccccc1)Nc1c(F)cccc1F (stereo not given)

**Result**
1: 1; 2: 1.02
